Kindly state Max for each of the entries shown.
Target: Alpha-1A adrenergic receptor (Homo sapiens) (UniProt P35348)
Sequence (P35348 whole entry): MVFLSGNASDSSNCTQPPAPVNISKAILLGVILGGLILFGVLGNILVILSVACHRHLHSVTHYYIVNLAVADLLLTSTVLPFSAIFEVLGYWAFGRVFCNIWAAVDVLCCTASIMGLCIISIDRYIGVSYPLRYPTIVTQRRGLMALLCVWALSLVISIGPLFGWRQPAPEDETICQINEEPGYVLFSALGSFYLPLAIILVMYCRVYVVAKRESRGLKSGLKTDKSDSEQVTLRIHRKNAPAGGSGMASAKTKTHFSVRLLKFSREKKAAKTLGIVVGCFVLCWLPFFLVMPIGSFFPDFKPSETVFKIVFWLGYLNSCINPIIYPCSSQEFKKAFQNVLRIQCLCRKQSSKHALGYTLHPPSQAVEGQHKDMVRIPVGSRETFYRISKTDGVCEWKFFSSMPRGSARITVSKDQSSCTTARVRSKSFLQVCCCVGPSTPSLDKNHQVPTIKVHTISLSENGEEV
Assay: Efficacy as % of the maximal effect observed for nonselective agonist phenylephrine in rat-1 fibroblasts expressing human Alpha-1 adrenergic receptor
Format: functional
Output spec: scalar in %, unitless text.

Answer with the recorded Max for the compound listed here: `CSc1ccc(C(F)(F)F)cc1NCC1=NCCN1`
111

Answer with the recorded Max for the compound listed here: `COc1ccc(SC)c(NCC2=NCCN2)c1`
101

Answer with the recorded Max for the compound listed here: `CS(=O)(=O)c1ccccc1NCC1=NCCN1`
103

Answer with the recorded Max for the compound listed here: `CC(C)S(=O)(=O)c1ccccc1NCC1=NCCN1`
70

Answer with the recorded Max for the compound listed here: `CS(=O)(=O)c1ccc(F)cc1NCC1=NCCN1`
96

Answer with the recorded Max for the compound listed here: `CSc1ccc(C)cc1NCC1=NCCN1`
101

Answer with the recorded Max for the compound listed here: `CCS(=O)(=O)c1ccccc1NCC1=NCCN1`
115

Answer with the recorded Max for the compound listed here: `CSc1c(F)cccc1NCC1=NCCN1`
91

Answer with the recorded Max for the compound listed here: `CC(C)Sc1ccccc1NCC1=NCCN1`
115

Answer with the recorded Max for the compound listed here: `CSc1ccc(Cl)cc1NCC1=NCCN1`
82

Answer with the recorded Max for the compound listed here: `COc1ccc(S(C)(=O)=O)c(NCC2=NCCN2)c1`
102

Answer with the recorded Max for the compound listed here: `CCSc1ccccc1NCC1=NCCN1`
109

Answer with the recorded Max for the compound listed here: `CS(=O)(=O)c1ccc(Cl)cc1NCC1=NCCN1`
91

Answer with the recorded Max for the compound listed here: `CS(=O)(=O)c1cc(Cl)ccc1NCC1=NCCN1`
41
